B1: H2-Kb / Ed28 (parent complex)
chain 1: AQSVTQPDARVTVSEGASLQLRCKYSYFGTPYLFWYVQYPRQGLQLLLKYYPGDPVVQGVNGFEAEFSKSNSSFHLRKASVHWSDWAVYFCAVSPGSGGKLTLGAGTRLQVNL
chain 2: DSGVVQSPRHIIKEKGGRSVLTCIPISGHSNVVWYQQTLGKELKFLIQHYEKVERDKGFLPSRFSVQQFDDYHSEMNMSALELEDSAMYFCASSPRASDYTFGSGTRLLVI
chain 3: not shown
chain 4: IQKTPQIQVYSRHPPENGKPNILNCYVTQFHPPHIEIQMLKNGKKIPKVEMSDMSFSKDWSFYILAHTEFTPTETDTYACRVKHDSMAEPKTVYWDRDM
chain 5: SIINFEKL

- Variants of: B1
- test: % of reporter cells activated (NFAT-GFP), raw; note: test concentration or dose not given here
measure: ratio to parent

{"variant string": "chain 5 I2N", "recorded result": 0.898}
{"variant string": "chain 5 I3L", "recorded result": 0.98}
{"variant string": "chain 5 L8H", "recorded result": 0.85}
{"variant string": "chain 5 E6W", "recorded result": 0.00894}
{"variant string": "chain 5 F5V", "recorded result": 0.772}
{"variant string": "chain 5 I3K", "recorded result": 0.651}
{"variant string": "chain 5 I2L", "recorded result": 1.14}
{"variant string": "chain 5 K7I", "recorded result": 0.197}
{"variant string": "chain 5 K7Q", "recorded result": 0.141}
{"variant string": "chain 5 F5I", "recorded result": 0.388}
{"variant string": "chain 5 L8P", "recorded result": 0.83}
{"variant string": "chain 5 I2H", "recorded result": 0.659}
{"variant string": "chain 5 E6V", "recorded result": 0.0103}
{"variant string": "chain 5 L8V", "recorded result": 0.761}
{"variant string": "chain 5 K7R", "recorded result": 0.496}
{"variant string": "chain 5 E6P", "recorded result": 0.0742}
{"variant string": "chain 5 N4Y", "recorded result": 0.0195}
{"variant string": "chain 5 N4S", "recorded result": 0.0271}
{"variant string": "chain 5 L8M", "recorded result": 0.862}
{"variant string": "chain 5 N4R", "recorded result": 0.227}
{"variant string": "chain 5 K7Y", "recorded result": 0.48}
{"variant string": "chain 5 N4C", "recorded result": 0.0197}
{"variant string": "chain 5 F5Y", "recorded result": 0.875}
{"variant string": "chain 5 N4K", "recorded result": 0.504}
{"variant string": "chain 5 I3E", "recorded result": 0.656}
{"variant string": "chain 5 I3G", "recorded result": 0.836}
{"variant string": "chain 5 I3F", "recorded result": 0.6}
{"variant string": "chain 5 F5A", "recorded result": 0.81}
{"variant string": "chain 5 F5L", "recorded result": 0.844}
{"variant string": "chain 5 F5R", "recorded result": 0.774}
{"variant string": "chain 5 S1P", "recorded result": 0.693}
{"variant string": "chain 5 L8T", "recorded result": 0.832}
